test system: Aβ40 in conditioned medium of cells stably expressing Amyloid Precursor Protein (APP); test: In vitro BACE cell-based assay (Aβ40 in conditioned medium, sandwich ELISA); details: Homo sapiens, HEK293, Table 2; HEK cells; read-out: HEK cell assay;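 note: compounds added as a dilution series, secreted peptide quantified by europium time-resolved fluorescence readout, potency fitted from percent of control versus compound concentration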

{"columns": ["SMILES DATA", "UNIT ANNOTATION", "IC50"],
 "data": [
  ["CO[C@H](C)C(=O)N[C@@H](Cc1cccc(C#N)c1)[C@H](O)CN[C@H]1CC2(CC(F)(F)C2)Oc2ncc(CC(C)(C)C)cc21", "nM", 12],
  ["CNc1cc(CC(C)(C)C)cc2c1OC1(CCC1)C[C@@H]2NC[C@@H](O)[C@H](Cc1cc(F)cc(F)c1)NC(=O)COC", "nM", 17],
  ["COCC(=O)N[C@@H](Cc1cc(F)cc(F)c1)[C@H](O)CN[C@H]1CC2(CCC2)Oc2c(-c3cncs3)cc(CC(C)(C)C)cc21", "nM", 33],
  ["COCC(=O)N[C@@H](Cc1ccc(F)cc1)[C@H](O)CN[C@H]1CC2(CCC2)Oc2nc(C)c(CC(C)(C)C)cc21", "nM", 108],
  ["CC(=O)N[C@@H](C[C@H]1CCOC1)[C@H](O)CN[C@H]1CC2(CCC2)Oc2ncc(CC(C)(C)C)cc21", "nM", 162],
  ["COCC(=O)N[C@@H](Cc1ccc(F)cc1)[C@H](O)CN[C@@H]1CC2(CCC2)Oc2c1cc(CC(C)(C)C)nc2-n1ccnc1", "nM", 2970]
]}

----------
assay: Microsomal stability assay, rat liver microsomes; conditions: rat liver microsomal data;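 note: rat liver microsomes (0.25 mg/mL) with about 1 µM compound plus 1 mM NADPH, pH 7.4, 37 °C for 30 min, parent left measured by LC-MS/MS against 0 min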
Label condition met when RLM < 100 µL/min/mg; otherwise condition not met.

{"columns": ["SMILES DATA", "DISCRETE LABEL"],
 "data": [
  ["CO[C@H](C)C(=O)N[C@@H](Cc1cccc(F)c1)[C@H](O)CN[C@@H]1CC2(CCC2)Oc2c1cc(CC(C)(C)C)nc2-n1ccnc1", "condition not met"],
  ["CC(C)(C)Cc1cnc2c(c1)[C@@H](NC[C@@H](O)[C@H](Cc1cccc(C#N)c1)NC(=O)c1ncccc1F)CC1(CC(F)(F)C1)O2", "condition not met"],
  ["CO[C@H](C)C(=O)N[C@@H](Cc1cccc(F)c1)[C@H](O)CN[C@H]1CC2(CCC2)Oc2c(-c3ccncc3)cc(CC(C)(C)O)cc21", "condition not met"],
  ["COCC(=O)N[C@@H](Cc1cc(F)cc(-c2nccs2)c1)[C@H](O)CN[C@@]1(C)CC2(CCC2)Oc2ncc(CC(C)(C)C)cc21", "condition met"],
  ["CC(C)(C)Cc1cnc2c(c1)[C@@H](NC[C@@H](O)[C@H](Cc1ccc(F)cc1)NC(=O)[C@@H]1CN(Cc3cncs3)CCO1)CC1(CCC1)O2", "condition not met"],
  ["CO[C@H](C)C(=O)N[C@@H](Cc1cccc(-c2ncco2)c1)[C@H](O)CN[C@H]1CC2(CCC2)Oc2ncc(CC(C)(C)C)cc21", "condition met"]
]}

----------
target: CYP3A4 (CYP3A) (Homo sapiens); assay: in vitro; conditions: microsomes, pH 7.4;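 note: inhibition of CYP3A-mediated 1-hydroxymidazolam formation after 10 min incubation with NADPH, quantified by HPLC MS relative to metabolite produced without test compound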
Sequence (P08684 2-503): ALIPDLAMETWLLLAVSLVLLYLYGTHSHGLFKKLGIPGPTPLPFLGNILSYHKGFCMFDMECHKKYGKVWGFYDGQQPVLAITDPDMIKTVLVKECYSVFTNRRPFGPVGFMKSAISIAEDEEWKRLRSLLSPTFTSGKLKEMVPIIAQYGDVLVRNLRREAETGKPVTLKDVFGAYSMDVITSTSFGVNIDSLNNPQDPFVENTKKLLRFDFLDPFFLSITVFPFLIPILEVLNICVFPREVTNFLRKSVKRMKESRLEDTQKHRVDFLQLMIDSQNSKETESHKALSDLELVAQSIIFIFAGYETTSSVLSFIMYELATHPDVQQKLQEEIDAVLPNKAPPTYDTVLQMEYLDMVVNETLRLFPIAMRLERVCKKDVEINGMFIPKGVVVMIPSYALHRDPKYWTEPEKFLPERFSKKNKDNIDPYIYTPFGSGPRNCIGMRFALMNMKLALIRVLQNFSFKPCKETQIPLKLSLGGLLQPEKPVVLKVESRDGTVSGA
pIC50: −log10 of the molar value.
RESULT TYPE: pIC50

{"columns": ["COMPOUND", "COMPARATOR", "READING"],
 "data": [
  ["CO[C@H](C)C(=O)N[C@@H](Cc1cccc(F)c1)[C@H](O)CN[C@H]1CC2(CCC2)Oc2c(-c3ccncc3)cc(CC(C)C)cc21 [compound 609]", "=", 7.00],
  ["Cc1nc(CN2CCO[C@H](C(=O)N[C@@H](Cc3ccc(F)cc3)[C@H](O)CN[C@H]3CC4(CCC4)Oc4ncc(CC(C)(C)C)cc43)C2)cs1 [compound 762]", "=", 6.52],
  ["COCC(=O)N[C@@H](Cc1cccc(F)c1)[C@H](O)CN[C@H]1CC2(CCC2)Oc2c1cc(CC(C)C)cc2-n1ccnc1 [compound 520]", "=", 7.00],
  ["CO[C@H](C)C(=O)N[C@@H](Cc1cccc(F)c1)[C@H](O)CN[C@H]1CC2(CCC2)Oc2c(-c3ccncc3)cc(CC(C)(C)C)cc21 [compound 585]", "=", 7.30],
  ["COCC(=O)N[C@@H](Cc1cc(F)cc(-c2ccncc2)c1)[C@H](O)CN[C@H]1CC2(CCC2)Oc2ncc(CC(C)(C)C)cc21 [compound 613]", "=", 6.80],
  ["CC(C)(C)Cc1cnc2c(c1)[C@@H](NC[C@@H](O)[C@H](Cc1ccc(F)cc1)NC(=O)[C@@H]1CN(Cc3cscn3)CCO1)CC1(CCC1)O2 [compound 786]", "=", 6.52],
  ["CC(C)(C)Cc1cnc2c(c1)[C@@H](NC[C@@H](O)[C@H](Cc1ccc(F)cc1)NC(=O)C(C)(F)F)CC1(CCC1)O2 [compound 477]", "=", 6.52],
  ["COCC(=O)N[C@@H](Cc1cncs1)[C@H](O)CN[C@H]1CC2(CCC2)Oc2c(-c3ccncc3)cc(CC(C)(C)C)cc21 [compound 633]", "=", 7.00],
  ["CO[C@H](C)C(=O)N[C@@H](Cc1cc(F)cc(F)c1)[C@H](O)CN[C@H]1CC2(CCC2)Oc2c1cc(CC(C)C)nc2-c1cncn1C [Example 710]", "=", 7.00],
  ["COCC(=O)N[C@@H](Cc1cccc(F)c1)[C@H](O)CN[C@H]1CC2(CCC2)Oc2ccc(C[C@@H](C)F)cc21 [compound 559]", "=", 5.15],
  ["CC(C)Cc1cnc2c(c1)[C@@H](NC[C@H](O)[C@@H](Cc1cccc(-c3nccs3)c1)NC(=O)[C@@H]1CCCO1)CC1(CCC1)O2 [compound 796]", "=", 6.70],
  ["CO[C@H](C)C(=O)N[C@@H](Cc1ccccc1)[C@H](O)CN[C@H]1CC2(CCC2)Oc2c(Br)cc(CC(C)C)cc21 [compound 545]", "=", 5.96],
  ["COCC(=O)N[C@@H](Cc1cc(F)cc(-c2nccs2)c1)[C@H](O)CN[C@H]1CC2(CCC2)Oc2ncc(CC(C)(C)F)cc21 [Example 724]", "=", 6.70],
  ["COCC(=O)N[C@@H](Cc1cc(F)cc(F)c1)[C@H](O)CN[C@H]1CC2(CCC2)Oc2c(-c3cccnc3)cc(CC(C)(C)C)cc21 [compound 489]", "=", 6.40],
  ["C#Cc1cccc(C[C@H](NC(=O)COC)[C@H](O)CN[C@H]2CC3(CCC3)Oc3ncc(CC)cc32)c1 [compound 842]", "=", 6.70],
  ["Cc1ccc(CN2CCO[C@@H](C(=O)N[C@@H](Cc3ccc(F)cc3)[C@H](O)CN[C@H]3CC4(CCC4)Oc4ncc(CC(C)(C)C)cc43)C2)cc1 [compound 709]", "=", 6.52],
  ["COCC(=O)N[C@@H](Cc1cccc(F)c1)[C@H](O)CN[C@H]1CC2(CCC2)Oc2c1cc(CC(C)(C)OC)cc2-n1ccnc1.O=C(O)C(F)(F)F [Example 423]", "=", 7.00],
  ["COCC(=O)N[C@@H](Cc1ccc2c(c1)OCO2)[C@@H](CN[C@H]1CC2(CCC2)Oc2ncc([C@H](F)C(C)(C)C)cc21)OC [compound 447]", "=", 4.85],
  ["CO[C@H](C)C(=O)N[C@@H](Cc1cc(F)cc(F)c1)[C@H](O)CN[C@H]1CC2(CCC2)Oc2c1cc(C1CC1)cc2-n1ccnc1 [compound 707]", "≥", 7.52],
  ["CC(C)(C)Cc1cnc2c(c1)[C@@H](NC[C@@H](O)[C@H](Cc1cccc(C#N)c1)NC(=O)[C@H]1CCCO1)CC1(CC(F)(F)C1)O2 [compound 472]", "=", 6.10],
  ["CO[C@H](C)C(=O)N[C@@H](Cc1cccc(-c2nccs2)c1)[C@H](O)CN[C@H]1CC2(CCC2)Oc2ncc([C@@H]3CC3(C)C)cc21 [compound 905]", "=", 6.70],
  ["COC(OC)C(=O)N[C@@H](Cc1cc(F)cc(-c2nccs2)c1)[C@H](O)CN[C@H]1CC2(CCC2)Oc2ncc(CC(C)(C)C)cc21 [compound 871]", "=", 6.70],
  ["CO[C@H](C)C(=O)N[C@@H](Cc1ccc2c(c1)OCO2)[C@H](O)CN[C@H]1CC2(CCC2)Oc2nc3c(cc21)[C@H](C(C)C)CO3 [compound 665]", "=", 6.70],
  ["CO[C@H](C)C(=O)N[C@@H](Cc1cc(F)cc(F)c1)[C@H](O)CN[C@H]1CC2(CCC2)Oc2c(-c3cnc[nH]3)cc(CC(C)C)cc21 [compound 476]", "=", 6.22]
]}

----------
Form field: log10 of IC50 (one value per entry).
molecular target: UniProtKB P56817; test: In vitro enzymatic BACE FRET (fluorescence resonance energy transfer) assay; format: biochemical; settings: BACE enzyme assay; read-out: BACE1 FRET assay (IC50);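 note: fluorescence read after 1 h with 50 nM quenched peptide substrate spanning the BACE cleavage site, in pH 4.2 acetate buffer containing 10% DMSO and nonionic detergent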
Sequence (P56817 46-501): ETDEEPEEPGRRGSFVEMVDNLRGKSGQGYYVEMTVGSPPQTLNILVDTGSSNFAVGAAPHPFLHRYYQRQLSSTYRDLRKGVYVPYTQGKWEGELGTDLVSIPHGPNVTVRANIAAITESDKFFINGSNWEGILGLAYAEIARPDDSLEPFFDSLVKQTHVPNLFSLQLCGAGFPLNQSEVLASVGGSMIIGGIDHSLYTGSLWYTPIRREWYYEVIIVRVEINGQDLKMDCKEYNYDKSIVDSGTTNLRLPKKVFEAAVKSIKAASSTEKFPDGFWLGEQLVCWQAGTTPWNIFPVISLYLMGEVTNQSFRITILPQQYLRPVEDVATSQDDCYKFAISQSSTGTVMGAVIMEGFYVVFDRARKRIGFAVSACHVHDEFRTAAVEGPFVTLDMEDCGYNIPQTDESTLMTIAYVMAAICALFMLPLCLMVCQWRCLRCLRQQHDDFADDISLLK
RESULT TYPE: log10 of IC50 (log10 of the value in nM)

{"columns": ["SMILES DATA", "log10 of IC50"],
 "data": [
  ["COCC(=O)N[C@@H](Cc1ccc2c(c1)OCO2)[C@H](O)CN[C@H]1CC2(CC(F)(F)C2)Oc2ncc(CC(C)(C)C)cc21", 1.62],
  ["C[C@@H](O)C(=O)N[C@@H](Cc1ccc(F)cc1)[C@H](O)CN[C@H]1CC2(CCC2)Oc2ncc(CC(C)(C)C)cc21", 1.18],
  ["CO[C@H](C)C(=O)N[C@@H](Cc1ccc(F)cc1)[C@H](O)CN[C@H]1CC2(CCC2)Oc2ncc(CC(C)(C)C(F)(F)F)cc21", 0.82],
  ["CC(=O)N[C@@H](Cc1cccc(F)c1C)[C@H](O)CN[C@H]1CC2(CCC2)Oc2ncc(CC(C)(C)C)cc21", 1.86],
  ["COCC(=O)N[C@@H](Cc1ccc2c(c1)OCO2)[C@H](O)CN[C@H]1CC2(CCC2)Oc2ncc(CC(C)(C)C#N)cc21", 2.07],
  ["CC(=O)N[C@@H](Cc1ccc(F)cc1)[C@H](O)CN[C@H]1CC2(CCC2)C(F)(F)c2ncc(CC(C)(C)C)cc21", 2.03]
]}
